Molecular target: T1, CEACAM5 on MKN-45 cells (UniProt P06731 35-702, limits assumed)
T1 sequence (looked up): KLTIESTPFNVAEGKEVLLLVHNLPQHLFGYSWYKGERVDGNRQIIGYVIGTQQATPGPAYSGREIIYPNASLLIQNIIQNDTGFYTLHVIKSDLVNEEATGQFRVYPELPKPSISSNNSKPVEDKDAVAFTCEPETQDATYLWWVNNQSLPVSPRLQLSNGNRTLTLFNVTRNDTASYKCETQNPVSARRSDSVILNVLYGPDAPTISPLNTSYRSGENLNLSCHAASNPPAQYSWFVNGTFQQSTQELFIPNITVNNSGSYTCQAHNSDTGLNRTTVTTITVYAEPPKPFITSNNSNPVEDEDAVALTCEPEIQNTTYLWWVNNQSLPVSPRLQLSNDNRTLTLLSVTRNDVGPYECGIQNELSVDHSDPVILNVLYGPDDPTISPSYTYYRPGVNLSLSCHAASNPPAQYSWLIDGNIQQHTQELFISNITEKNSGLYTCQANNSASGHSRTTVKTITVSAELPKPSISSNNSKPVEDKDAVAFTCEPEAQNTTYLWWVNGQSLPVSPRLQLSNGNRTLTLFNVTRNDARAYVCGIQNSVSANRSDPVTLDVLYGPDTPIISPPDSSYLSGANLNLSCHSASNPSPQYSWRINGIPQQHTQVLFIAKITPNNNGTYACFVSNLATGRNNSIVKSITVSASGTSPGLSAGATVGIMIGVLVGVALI
Assay: cell-based or functional assay

[
  {
    "Binder": "tusamitamab-3 (antibody, human IgG1, kappa, V domains shown, heavy-chain glycan trimmed to core GlcNAc, 6-N3-GalNAc attached and reacted with BCN-HS-PEG2-HS-(va-PAB-Ex)2 3 (exatecan payload); average DAR 3.89) VH: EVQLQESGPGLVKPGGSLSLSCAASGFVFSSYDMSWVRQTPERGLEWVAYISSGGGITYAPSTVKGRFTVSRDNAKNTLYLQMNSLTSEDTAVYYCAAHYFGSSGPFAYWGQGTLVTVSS VL: DIQMTQSPASLSASVDRVTITCRASENIFSYLAWYQQKPGKSPKLLVYNTRTLAEGVPSRFSGSGSGTDFSLTISSLQPEDFATYYCQHHYGTPFTFGSGTKLEIKR",
    "Units": "nM",
    "Op": "=",
    "MKN-45, IC50": 3.4
  },
  {
    "Binder": "labetuzumab-3 (antibody, human IgG1, kappa, V domains shown, heavy-chain glycan trimmed to core GlcNAc, 6-N3-GalNAc attached and reacted with BCN-HS-PEG2-HS-(va-PAB-Ex)2 3 (exatecan payload); average DAR 3.90) VH: EVQLVESGGGVVQPGRSLRLSCSASGFDFTTYWMSWVRQAPGKGLEWIGEIHPDSSTINYAPSLKDRFTISRDNAKNTLFLQMDSLRPEDTGVYFCASLYFGFPWFAYWGQGTPVTVSS VL: DIQLTQSPSSLSASVGDRVTITCKASQDVGTSVAWYQQKPGKAPKLLIYWTSTRHTGVPSRFSGSGSGTDFTFTISSLQPEDIATYYCQQYSLYRSFGQGTKVEIKR",
    "Units": "nM",
    "Op": "=",
    "MKN-45, IC50": 6.5
  },
  {
    "Binder": "tusamitamab-6 (antibody, human IgG1, kappa, V domains shown, heavy-chain glycan trimmed to core GlcNAc, 6-N3-GalNAc attached and reacted with BCN-HS-PEG2-HS-(vc-PABA-Ahx-May)2 6 (maytansinoid payload); average DAR 3.85) VH: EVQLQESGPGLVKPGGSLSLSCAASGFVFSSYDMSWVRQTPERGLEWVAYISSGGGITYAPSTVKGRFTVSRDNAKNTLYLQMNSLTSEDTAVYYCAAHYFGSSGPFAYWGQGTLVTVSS VL: DIQMTQSPASLSASVDRVTITCRASENIFSYLAWYQQKPGKSPKLLVYNTRTLAEGVPSRFSGSGSGTDFSLTISSLQPEDFATYYCQHHYGTPFTFGSGTKLEIKR",
    "Units": "nM",
    "Op": "=",
    "MKN-45, IC50": 0.88
  },
  {
    "Binder": "B12-3 (antibody, human IgG1, kappa, V domains shown, heavy-chain glycan trimmed to core GlcNAc, 6-N3-GalNAc attached and reacted with BCN-HS-PEG2-HS-(va-PAB-Ex)2 3 (exatecan payload); average DAR 3.75) VH: QVQLVQSGAEVKKPGASVKVSCQASGYRFSNFVIHWVRQAPGQRFEWMGWINPYNGNKEFSAKFQDRVTFTADTSANTAYMELRSLRSADTAVYYCARVGPYSWDDSPQDNYYMDVWGKGTTVIVSS VL: EIVLTQSPGTLSLSPGERATFSCRSSHSIRSRRVAWYQHKPGQAPRLVIHGVSNRASGISDRFSGSGSGTDFTLTITRVEPEDFALYYCQVYGASSYTFGQGTKLERKR",
    "Units": "nM",
    "Op": ">",
    "MKN-45, IC50": 100
  },
  {
    "Binder": "tusamitamab-DM4 (antibody, human IgG1, kappa, V domains shown, SPDB-DM4 conjugated, sites not stated; average DAR 3.4) VH: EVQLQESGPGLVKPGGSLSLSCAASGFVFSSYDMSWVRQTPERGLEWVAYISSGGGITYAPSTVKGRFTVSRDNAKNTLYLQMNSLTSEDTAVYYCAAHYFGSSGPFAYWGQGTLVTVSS VL: DIQMTQSPASLSASVDRVTITCRASENIFSYLAWYQQKPGKSPKLLVYNTRTLAEGVPSRFSGSGSGTDFSLTISSLQPEDFATYYCQHHYGTPFTFGSGTKLEIKR",
    "Units": "nM",
    "Op": "=",
    "MKN-45, IC50": 2.6
  }
]

Data origin, for the record: patent US20250082770A1
